Provenance of the data: patent US5594024A

Listing of recorded IC50 by entry.
- Experimental Target: D2 receptors (Rattus norvegicus, UniProt P61169)
- Construct: Preparation of rat striatal membranes for (3H)-spiperone; from tissue; host or cells: rat striatum (striatal membranes)
- Sequence (P61169 whole entry): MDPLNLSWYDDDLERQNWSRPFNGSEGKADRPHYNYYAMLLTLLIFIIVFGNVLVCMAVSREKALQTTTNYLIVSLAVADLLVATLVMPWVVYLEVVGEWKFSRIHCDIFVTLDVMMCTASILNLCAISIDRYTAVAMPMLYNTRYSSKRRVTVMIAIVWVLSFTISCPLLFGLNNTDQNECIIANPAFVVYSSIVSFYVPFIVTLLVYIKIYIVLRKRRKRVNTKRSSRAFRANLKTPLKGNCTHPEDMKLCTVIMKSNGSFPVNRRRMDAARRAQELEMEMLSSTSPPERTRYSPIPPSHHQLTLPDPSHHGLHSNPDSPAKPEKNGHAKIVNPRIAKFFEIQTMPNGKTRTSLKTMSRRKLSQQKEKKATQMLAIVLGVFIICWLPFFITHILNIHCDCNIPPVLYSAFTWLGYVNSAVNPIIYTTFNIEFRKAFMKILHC
- Measurement Protocol: D2 antagonist binding ([3H]-spiperone), rat striatum
Report only the number, with the unit µM understood.

| Compound | Unit Name | IC50 |
| --- | --- | --- |
| CCN1CCC[C@@H](c2cccc(C#N)c2)C1 [S-(-)-33] | µM | 14 |

Now for the compound whose IC50 we want.
Please report the measured IC50 for O=S(=O)(Oc1cccc([C@@H]2CCCN(CCc3ccccc3)C2)c1)C(F)(F)F [Compound S-18]
0.24
